Documented pKd across a set of binders
studySystem: human TGFßRII (antigen of the Octet experiments) (human, UniProt P37173 23-166)
Sequence (P37173 23-166): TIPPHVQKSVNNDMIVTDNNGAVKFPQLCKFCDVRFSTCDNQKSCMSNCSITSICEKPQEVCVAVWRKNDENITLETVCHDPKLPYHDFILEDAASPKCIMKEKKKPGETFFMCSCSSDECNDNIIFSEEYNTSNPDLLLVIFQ
The read-out pKd is expressed as -log10 of concentration in moles per litre.

Prompt: Write down pKd measured for item XENP37815 TBRII-A_H1.271_L1.53 (antibody, V domains shown) VH: QLQVQESGPGLVKPSETLSLTCTVSGGSISSSYFSWHWIRQPPGKGLEWIGSFYYGGKTYYNPSLKSRATISIDTSKNQFSLKLSSVTAADTAVYYCARGPTLIRGVIDSWGQGTLVTVSS VL: EIVLTQSPATLSLSPGERATLSCRASQSVRSYLAWYQQKPGQAPRLLIYDASNRATGIPARFSGSGSGTDFTLTISSLEPEDFAVYYCQQRSNYPPTFGQGTKVEIK
Completion: 6.39

Alright, here's another binder for you.
Prompt: Write down pKd measured for item XENP37817 TBRII-A_H1.272_L1 (antibody, V domains shown) VH: QLQVQESGPGLVKPSETLSLTCTVSGGSISSSYFSWGWIRQPPGKGLEWIGSFNYGGKTYYNPSLKSRATISIDTSKNQFSLKLSSVTAADTAVYYCARGPTTIRGVIDSWGQGTLVTVSS VL: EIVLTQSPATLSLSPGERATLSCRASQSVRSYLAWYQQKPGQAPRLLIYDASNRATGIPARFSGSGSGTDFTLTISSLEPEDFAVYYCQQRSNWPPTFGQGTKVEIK
Completion: 7.24
